Every entry's value here was drawn from ChEMBL document CHEMBL1671867.

tested on: Acinetobacter baumannii; experiment: Antibacterial activity against Acinetobacter baumannii F264 by Etest method; format: functional
experimental_endpoint: MIC (µg/mL)

sample_smiles	value_unit	comparison_operator	recorded_value
CO[C@H]1/C=C/O[C@@]2(C)Oc3c(C)c(O)c4c(O)c(c(/C=N/N5CCN(C)CC5)c(O)c4c3C2=O)NC(=O)/C(C)=C\C=C\[C@H](C)[C@H](O)[C@@H](C)[C@@H](O)[C@@H](C)[C@H](OC(C)=O)[C@@H]1C	µg/mL	=	12
CC(=O)O[C@H]1C[C@@]2(C)[C@@H](C[C@@H](O)[C@H]3[C@@]4(C)CC[C@@H](O)[C@@H](C)[C@@H]4CC[C@@]32C)/C1=C(\CCC=C(C)C)C(=O)O	µg/mL	>	256
C[C@@H](O)[C@H]1C(=O)N2C(C(=O)O)=C(S[C@@H]3CN[C@H](C(=O)N(C)C)C3)[C@H](C)[C@H]12	µg/mL	>	32
CN[C@H](CC(C)C)C(=O)N[C@H]1C(=O)N[C@@H](CC(N)=O)C(=O)N[C@H]2C(=O)N[C@H]3C(=O)N[C@H](C(=O)N[C@H](C(=O)O)c4cc(O)cc(O)c4-c4cc3ccc4O)[C@H](O)c3ccc(c(Cl)c3)Oc3cc2cc(c3O[C@@H]2O[C@H](CO)[C@@H](O)[C@H](O)[C@H]2O[C@H]2C[C@](C)(N)[C@H](O)[C@H](C)O2)Oc2ccc(cc2Cl)[C@H]1O	µg/mL	>	256
CC[C@H]1OC(=O)[C@H](C)[C@@H](O[C@H]2C[C@@](C)(OC)[C@@H](O)[C@H](C)O2)[C@H](C)[C@@H](O[C@@H]2O[C@H](C)C[C@H](N(C)C)[C@H]2O)[C@](C)(OC)C[C@@H](C)C(=O)[C@H](C)[C@@H](O)[C@]1(C)O	µg/mL	=	6

* * *

system: Pseudomonas aeruginosa; assay: Antibacterial activity against Pseudomonas aeruginosa ATCC 27853by Etest method in presence of 0.5 ug/ml NAB739; type: functional
Measured MIC by item

sample_smiles	comparison_operator	MIC, µg/mL
C[C@@H](O)[C@H]1C(=O)N2C(C(=O)O)=C(S[C@@H]3CN[C@H](C(=O)N(C)C)C3)[C@H](C)[C@H]12	=	0.25
CN[C@H](CC(C)C)C(=O)N[C@H]1C(=O)N[C@@H](CC(N)=O)C(=O)N[C@H]2C(=O)N[C@H]3C(=O)N[C@H](C(=O)N[C@H](C(=O)O)c4cc(O)cc(O)c4-c4cc3ccc4O)[C@H](O)c3ccc(c(Cl)c3)Oc3cc2cc(c3O[C@@H]2O[C@H](CO)[C@@H](O)[C@H](O)[C@H]2O[C@H]2C[C@](C)(N)[C@H](O)[C@H](C)O2)Oc2ccc(cc2Cl)[C@H]1O	>	256
CO[C@H]1/C=C/O[C@@]2(C)Oc3c(C)c(O)c4c(O)c(c(/C=N/N5CCN(C)CC5)c(O)c4c3C2=O)NC(=O)/C(C)=C\C=C\[C@H](C)[C@H](O)[C@@H](C)[C@@H](O)[C@@H](C)[C@H](OC(C)=O)[C@@H]1C	=	32
CC(=O)O[C@H]1C[C@@]2(C)[C@@H](C[C@@H](O)[C@H]3[C@@]4(C)CC[C@@H](O)[C@@H](C)[C@@H]4CC[C@@]32C)/C1=C(\CCC=C(C)C)C(=O)O	>	256
CC[C@H]1OC(=O)[C@H](C)[C@@H](O[C@H]2C[C@@](C)(OC)[C@@H](O)[C@H](C)O2)[C@H](C)[C@@H](O[C@@H]2O[C@H](C)C[C@H](N(C)C)[C@H]2O)[C@](C)(OC)C[C@@H](C)C(=O)[C@H](C)[C@@H](O)[C@]1(C)O	=	16
